# Test System: CDK4/cyclinD3 (Homo sapiens, UniProt P11802)
# Sequence (P11802 whole entry): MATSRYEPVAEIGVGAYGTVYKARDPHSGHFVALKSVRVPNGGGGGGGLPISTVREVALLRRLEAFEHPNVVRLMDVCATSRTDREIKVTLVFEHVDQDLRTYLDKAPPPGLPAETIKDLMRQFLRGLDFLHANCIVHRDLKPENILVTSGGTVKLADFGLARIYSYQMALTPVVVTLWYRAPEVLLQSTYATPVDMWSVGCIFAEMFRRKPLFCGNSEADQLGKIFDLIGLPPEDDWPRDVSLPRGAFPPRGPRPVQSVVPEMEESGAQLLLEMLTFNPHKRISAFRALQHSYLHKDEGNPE
# Sequence (P30281 whole entry partner): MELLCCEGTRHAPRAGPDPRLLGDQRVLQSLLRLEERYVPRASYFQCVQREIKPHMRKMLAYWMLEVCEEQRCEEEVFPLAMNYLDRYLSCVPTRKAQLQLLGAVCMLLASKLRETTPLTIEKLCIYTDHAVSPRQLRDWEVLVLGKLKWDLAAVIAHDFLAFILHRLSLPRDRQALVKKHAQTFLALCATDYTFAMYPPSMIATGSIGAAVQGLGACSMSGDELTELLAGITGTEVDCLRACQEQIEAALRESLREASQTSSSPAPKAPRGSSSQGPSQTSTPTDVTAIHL
# Assay Overview: Cyclin-dependent kinase activity assay (continuous ATP coupling assay), CDK4/cyclinD3
# Condition Summary: CDK4/cyclinD3 60 nM, ATP 500 μM, Rb copeptide 500 μM, 15 min preincubation, pH 7.5, 1% DMSO
Readout Type: IC50

Sample answers from the record:
CNS(=O)(=O)c1ccc(Nc2ncc(C(F)(F)F)c(-n3cc(C4CCCC4)cn3)n2)cc1: ≤ 0.01 µM
CNS(=O)(=O)c1ccc(Nc2ncc(C(F)(F)F)c(-n3cc(C4=CCCC4)cn3)n2)cc1: 0.01 to 0.1 µM
CC(O)CNS(=O)(=O)c1ccc(Nc2ncc(C(F)(F)F)c(-n3cccn3)n2)cc1 (stereo not drawn): ≥ 0.1 µM
O=C1NCc2cc(Nc3ncc(C(F)(F)F)c(-n4cccn4)n3)ccc21: ≥ 0.1 µM
CC(C)(O)CCc1cnn(-c2nc(NC3CCN(S(C)(=O)=O)CC3)ncc2C(F)(F)F)c1: 0.01 to 0.1 µM
Cc1cc(S(=O)(=O)NCCO)ccc1Nc1ncc(C(F)(F)F)c(-n2cccn2)n1: ≥ 0.1 µM

Look up and report measured IC50 (CDK4/cyclinD3 (Homo sapiens, UniProt P11802)) for the following compound: "CNS(=O)(=O)c1ccc(Nc2ncc(C(F)(F)F)c(-n3cc(C4CN(C(C)=O)C4)cn3)n2)cc1" ≥ 0.1 µM

Fetch value of IC50 on CDK4/cyclinD3 (Homo sapiens, UniProt P11802) for CNS(=O)(=O)c1ccc(Nc2ncc(C(F)(F)F)c(-n3cc(C4CC4(F)F)cn3)n2)cc1 (single isomer, unassigned) [Example 52] . ≥ 0.1 µM

Please indicate recorded IC50 of "CS(=O)(=O)Nc1cccc(Nc2ncc(C(F)(F)F)c(-n3cccn3)n2)c1" measured with CDK4/cyclinD3 (Homo sapiens, UniProt P11802). ≥ 0.1 µM

Report measured IC50 on CDK4/cyclinD3 (Homo sapiens, UniProt P11802); entry: "CNS(=O)(=O)c1ccc(Nc2ncc(C(F)(F)F)c(-n3cc(C4CCN(S(C)(=O)=O)CC4)cn3)n2)cc1" 0.01 to 0.1 µM

Report IC50 under test system CDK4/cyclinD3 (Homo sapiens, UniProt P11802) for "CNS(=O)(=O)c1ccc(Nc2ncc(C(F)(F)F)c(-n3cc(N4CCCC4=O)cn3)n2)cc1" . ≥ 0.1 µM

Write IC50 of CC(O)Cc1cnn(-c2nc(NC3CCN(S(C)(=O)=O)CC3)ncc2C(F)(F)F)c1 (single isomer, unassigned) [Example 108] ; system used: CDK4/cyclinD3 (Homo sapiens, UniProt P11802) 0.01 to 0.1 µM

Please report the measured IC50 for CC(O)Cc1cnn(-c2nc(NC3CCN(S(C)(=O)=O)CC3)ncc2C(F)(F)F)c1 (single isomer, unassigned) [Example 107] tested on CDK4/cyclinD3 (Homo sapiens, UniProt P11802). 0.01 to 0.1 µM

Provide IC50, system CDK4/cyclinD3 (Homo sapiens, UniProt P11802), entry "NS(=O)(=O)c1ccc(Nc2ncc(C(F)(F)F)c(-n3cccn3)n2)cc1" ≥ 0.1 µM

Fill in: IC50 on CDK4/cyclinD3 (Homo sapiens, UniProt P11802), entry "CNS(=O)(=O)c1ccc(Nc2ncc(C(F)(F)F)c(-n3cc(C(C)(C)C(C)(C)O)cn3)n2)cc1" 0.01 to 0.1 µM
